The measured values listed here are drawn from patent US20150086555A1.

TGT: recombinant homotrimeric HA A/Wisconsin/67/05 H3N2 (Influenza A virus A/Wisconsin/67/2005(H3N2))
PROTOCOL_NOTES: protein microarray, purified IgG, trimeric HA
MEASUREMENT_CONTEXT: remark: other sources report otherwise
Quick reference: Trimeric HA Binding: RLU of the listed items.
OBSERVATION_TYPE: Trimeric HA Binding: RLU

INSERT INTO measurements (binder, observation_type, assay_value) VALUES
  ('TCN-527 (5086_C06) (antibody, V domains shown) VH: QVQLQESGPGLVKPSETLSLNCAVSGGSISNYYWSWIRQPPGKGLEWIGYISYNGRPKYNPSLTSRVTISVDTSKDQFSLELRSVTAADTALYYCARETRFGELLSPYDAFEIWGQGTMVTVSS VL: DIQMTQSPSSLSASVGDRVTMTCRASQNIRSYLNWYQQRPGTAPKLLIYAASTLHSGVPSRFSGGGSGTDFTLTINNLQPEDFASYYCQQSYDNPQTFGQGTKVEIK', 'Trimeric HA Binding: RLU', '600 RLU'),
  ('TCN-546 (5089_L08) (antibody, V domains shown) VH: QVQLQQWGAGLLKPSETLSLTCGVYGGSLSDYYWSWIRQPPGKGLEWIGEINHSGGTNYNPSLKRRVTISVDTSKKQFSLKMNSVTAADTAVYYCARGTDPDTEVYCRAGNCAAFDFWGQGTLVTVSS VL: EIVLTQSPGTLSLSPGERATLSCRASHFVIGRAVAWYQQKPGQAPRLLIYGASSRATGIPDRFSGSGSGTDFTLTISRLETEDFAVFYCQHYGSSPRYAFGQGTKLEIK', 'Trimeric HA Binding: RLU', '25500 RLU'),
  ('TCN-557 (5081_A04) (antibody, V domains shown) VH: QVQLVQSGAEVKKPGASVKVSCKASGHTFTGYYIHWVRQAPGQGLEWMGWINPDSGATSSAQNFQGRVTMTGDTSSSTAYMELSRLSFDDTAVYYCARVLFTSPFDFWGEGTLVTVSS VL: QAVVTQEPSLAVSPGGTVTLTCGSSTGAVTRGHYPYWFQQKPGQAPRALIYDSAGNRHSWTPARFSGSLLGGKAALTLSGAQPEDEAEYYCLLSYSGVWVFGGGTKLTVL', 'Trimeric HA Binding: RLU', '327 RLU'),
  ('TCN-553 (5261_C18) (antibody, V domains shown) VH: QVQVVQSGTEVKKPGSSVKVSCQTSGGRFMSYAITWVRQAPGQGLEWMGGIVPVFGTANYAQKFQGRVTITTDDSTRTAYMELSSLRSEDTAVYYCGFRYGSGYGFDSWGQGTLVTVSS VL: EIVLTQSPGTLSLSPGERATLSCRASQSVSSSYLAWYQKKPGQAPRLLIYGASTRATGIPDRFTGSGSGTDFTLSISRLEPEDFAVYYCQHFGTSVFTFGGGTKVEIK', 'Trimeric HA Binding: RLU', '197 RLU'),
  ('TCN-536 (5095_N01) (antibody, V domains shown) VH: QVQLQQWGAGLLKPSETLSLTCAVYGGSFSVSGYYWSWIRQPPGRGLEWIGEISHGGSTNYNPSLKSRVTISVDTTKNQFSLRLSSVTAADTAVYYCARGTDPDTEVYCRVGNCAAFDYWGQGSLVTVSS VL: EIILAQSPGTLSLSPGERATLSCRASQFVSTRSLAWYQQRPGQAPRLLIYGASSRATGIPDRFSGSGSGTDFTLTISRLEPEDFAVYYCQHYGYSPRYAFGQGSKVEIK', 'Trimeric HA Binding: RLU', '24700 RLU'),
  ('TCN-531 (5091_H13) (antibody, V domains shown) VH: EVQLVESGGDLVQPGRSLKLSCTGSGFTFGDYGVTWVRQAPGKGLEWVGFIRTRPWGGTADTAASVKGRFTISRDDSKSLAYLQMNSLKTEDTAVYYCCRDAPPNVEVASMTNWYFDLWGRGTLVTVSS VL: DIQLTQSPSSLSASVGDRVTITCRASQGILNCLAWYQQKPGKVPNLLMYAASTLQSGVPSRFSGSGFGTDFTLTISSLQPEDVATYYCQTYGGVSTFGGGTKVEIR', 'Trimeric HA Binding: RLU', '20600 RLU'),
  ('TCN-537 (3194_D21) (antibody, V domains shown) VH: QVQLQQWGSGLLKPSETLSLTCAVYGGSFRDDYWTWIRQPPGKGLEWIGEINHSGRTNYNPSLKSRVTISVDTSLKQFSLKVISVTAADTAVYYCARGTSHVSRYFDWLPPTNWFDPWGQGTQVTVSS VL: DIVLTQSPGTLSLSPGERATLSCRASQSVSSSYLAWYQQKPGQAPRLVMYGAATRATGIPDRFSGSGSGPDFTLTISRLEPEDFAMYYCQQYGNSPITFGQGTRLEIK', 'Trimeric HA Binding: RLU', '154 RLU'),
  ('TCN-558 (5248_H10b) (antibody, V domains shown) VH: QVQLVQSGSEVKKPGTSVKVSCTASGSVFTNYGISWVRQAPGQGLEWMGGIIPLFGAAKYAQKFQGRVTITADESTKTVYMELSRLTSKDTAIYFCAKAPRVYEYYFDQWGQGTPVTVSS VL: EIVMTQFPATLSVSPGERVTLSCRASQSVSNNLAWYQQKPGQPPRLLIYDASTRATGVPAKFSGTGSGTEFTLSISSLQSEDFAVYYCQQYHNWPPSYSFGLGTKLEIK', 'Trimeric HA Binding: RLU', '320 RLU'),
  ('TCN-550 (5096_F06) (antibody, V domains shown) VH: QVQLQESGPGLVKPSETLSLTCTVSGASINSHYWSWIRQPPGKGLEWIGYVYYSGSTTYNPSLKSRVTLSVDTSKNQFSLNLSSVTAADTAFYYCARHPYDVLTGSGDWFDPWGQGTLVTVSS VL: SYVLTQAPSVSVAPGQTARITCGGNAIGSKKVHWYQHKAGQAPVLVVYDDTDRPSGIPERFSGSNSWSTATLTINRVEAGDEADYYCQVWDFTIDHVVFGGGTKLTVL', 'Trimeric HA Binding: RLU', '21300 RLU'),
  ('TCN-526 (5084_C17) (antibody, V domains shown) VH: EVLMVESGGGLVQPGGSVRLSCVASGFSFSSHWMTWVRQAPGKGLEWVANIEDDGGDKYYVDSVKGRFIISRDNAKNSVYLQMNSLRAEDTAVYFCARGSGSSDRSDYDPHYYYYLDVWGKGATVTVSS VL: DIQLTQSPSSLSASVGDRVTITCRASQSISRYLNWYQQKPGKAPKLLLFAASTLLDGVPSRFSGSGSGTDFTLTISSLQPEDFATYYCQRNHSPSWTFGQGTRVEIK', 'Trimeric HA Binding: RLU', '26600 RLU');
